Output met for records whose logP is lower than 3, not met for records at or above 3.

Regarding CCC(C)C(C)(C)C(N)=O (stereo not given) , kindly confirm whether its logP is beneath 3.
met

Does the reported logP of CCCCn1cnc2c(NC(C)=O)ncnc21 stay below 3?
met

Lab note: confirm whether the reported logP for this compound is below 3, equality not counting. compound: CCCCCn1cnc2c(NC(C)=O)ncnc21
met

Decide: logP of NC(=O)OCCC1=C(N2CC2)C(=O)C(Br)=C(N2CC2)C1=O strictly below 3?
met

Strictly below 3 in logP? c1ccc2c(c1)Cc1ccccc1S2
not met

For this compound, is logP lower than 3? COC(=O)C(Cl)(Cl)Cl
met

A record lists CC(C)(C)c1cccc(C(C)(C)C)n1 . Is its logP below 3?
not met

Lab note: logP threshold 3. Does this compound come in strictly under it? O=C(CCn1ccnc1[N+](=O)[O-])NCCO
met

Consider the compound CC(C)(C)Cl . Is its logP strictly less than 3?
met

Find out if reported logP for CCCSP(=O)(OCC)SCCC is less than 3
not met

Quick check: logP of CC(O)CNC(=O)C(F)(F)Cn1cnc([N+](=O)[O-])n1 (stereo not given) under 3?
met

Does this compound meet the criterion logP < 3? CCn1cc(C)c(=O)[nH]c1=O
met

Threshold test, logP < 3: Cc1ccc(C)[nH]1
met

Please state whether logP is below 3 for CN(C)N=Nc1nccs1
met

hey, is logP for CS(=O)(=O)CC#N lower than 3 or not?
met

Find out if reported logP for CC1CN1C1=CC(=O)C(N2CC2C)=CC1=O (stereo not given) is less than 3
met

I wonder whether O=C(O)Cc1ccccc1Nc1c(F)cccc1Cl has logP below 3. Can you tell?
not met

# TODO verify logP < 3 strictly for this compound: Cc1c(COC(=O)[C@@H]2[C@H](/C=C(\Cl)C(F)(F)F)C2(C)C)cccc1-c1ccccc1
not met

Dear colleague, could you confirm whether logP of Oc1ccc(C(F)(F)F)cc1 falls below 3? Thanks.
met

is_below(logP, 3) for CC(C)=NOCCOC(=O)[C@@H](C)Oc1ccc(Oc2cnc3cc(Cl)ccc3n2)cc1 ?
not met

Does this compound meet the criterion logP < 3? CC(C)Cc1cc([N+](=O)[O-])cc(C(C)C)c1O
not met

Determine whether this compound shows logP lower than 3 (ties excluded): O/N=C/c1ccncc1
met

Determine whether this compound shows logP lower than 3 (ties excluded): CCOC(=O)COC(=O)c1cc(Oc2ccc(C(F)(F)F)cc2Cl)ccc1[N+](=O)[O-]
not met

Is logP strictly under 3 for the entry CC(=S)N(c1ccccc1)c1ccccc1 ?
met

hey, is logP for O/N=C\c1ccc(F)cc1 lower than 3 or not?
met

Please determine if FC(F)(F)CCc1ccccc1 is below 3 in terms of logP.
not met

Item Nc1n[nH]c(Cc2ccc([N+](=O)[O-])o2)n1 : logP beneath 3, strictly?
met

# strict comparison: is reported logP < 3? input = CC(C)NC(C)C
met

Lab note: logP threshold 3. Does this compound come in strictly under it? CC(=O)C(C)(C)C
met

Please determine if O=C1CC(c2ccc(C(F)(F)F)cc2)Cc2c1c(=O)c1cc(Cl)ccc1n2O (stereo not given) is below 3 in terms of logP.
not met

Does the reported logP of the following compound sit strictly below 3? c1ccc2c(c1)Oc1ccccc1S2
not met

Does the reported logP of the following compound sit strictly below 3? c1ccc(Cn2cccn2)cc1
met

Just wondering, is logP of COc1ccc([N+](=O)[O-])cn1 below 3?
met

Hello, is logP of the following compound strictly smaller than 3? O=S(=O)(CCl)c1ccccc1
met

Is 3 strictly greater than the compound's reported logP? compound: Fc1cccnc1
met

Hi there! Is logP for CN(C)c1ccc2c(c1)C(=O)N(S(C)(=O)=O)C2=O below 3, do you know?
met

Dear colleague, could you confirm whether logP of N#Cc1ccc2[nH]c(N)nc2c1 falls below 3? Thanks.
met

Dear colleague, could you confirm whether logP of COC(=O)c1ccc(Cl)cc1 falls below 3? Thanks.
met

Item O=C1C=C(N2CCCC2)C(=O)c2ccccc21 : logP beneath 3, strictly?
met

Given CC(C)(NC(=O)C(Br)C(C)(C)C)c1ccccc1 (stereo not given) , is recorded logP strictly lower than 3?
not met

Determine if CCn1cnc([N+](=O)[O-])n1 shows logP strictly lower than 3.
met

Could you please tell me whether logP recorded for CSC(=S)Nc1ccc(Cl)c(Cl)c1 is less than 3?
not met

Hi there! Is logP for C=CCC below 3, do you know?
met

Criterion: logP strictly below 3. Is it met by O=C1C=C(N2CC=CC2)C(=O)c2ccccc21 ?
met

For NC(=O)CCOc1ccccc1 , is the recorded logP below the cut-off of 3?
met

Take the compound CCOC(=O)CCCOc1ccc(Cl)cc1C and say whether its logP is less than 3.
not met

Record CC(C)(C)n1ccnc1C=NO : is its logP strictly below 3?
met

Check if logP falls below 3 for C/C=C/C(C)=O .
met

Hello, I'm reviewing records and need to know if logP of CCOc1cccnc1 is below 3. Could you check?
met

Here's an entry: O=S1(=O)OCC2C(CO1)C1(Cl)C(Cl)=C(Cl)C2(Cl)C1(Cl)Cl (stereo not given) . Is its logP below 3?
not met

Confirm or reject: logP of O=C1C=CC(=O)C(Cl)=C1 lies strictly below 3
met

# check: logP < 3 for CCS(=O)(=O)CC
met

# strict comparison: is reported logP < 3? input = CC(C)c1ccccc1N
met

Find out if reported logP for C=CCOC1=NS(=O)(=O)c2ccccc21 is less than 3
met

Item OCCCCl : logP beneath 3, strictly?
met

Does the reported logP of the following compound sit strictly below 3? O=C(O)CCC(=O)c1ccc(N2Cc3ccccc3C2=O)cc1
met
